Values compiled from patent US9975888B2.

# measured target: CYP2C19 (Homo sapiens, UniProt P33261)
# Construct: 0.1 mg/mL protein human liver microsomes (BD Gentest); tissue BD Gentest; host or cells: human liver microsomes
# Sequence (P33261 whole entry): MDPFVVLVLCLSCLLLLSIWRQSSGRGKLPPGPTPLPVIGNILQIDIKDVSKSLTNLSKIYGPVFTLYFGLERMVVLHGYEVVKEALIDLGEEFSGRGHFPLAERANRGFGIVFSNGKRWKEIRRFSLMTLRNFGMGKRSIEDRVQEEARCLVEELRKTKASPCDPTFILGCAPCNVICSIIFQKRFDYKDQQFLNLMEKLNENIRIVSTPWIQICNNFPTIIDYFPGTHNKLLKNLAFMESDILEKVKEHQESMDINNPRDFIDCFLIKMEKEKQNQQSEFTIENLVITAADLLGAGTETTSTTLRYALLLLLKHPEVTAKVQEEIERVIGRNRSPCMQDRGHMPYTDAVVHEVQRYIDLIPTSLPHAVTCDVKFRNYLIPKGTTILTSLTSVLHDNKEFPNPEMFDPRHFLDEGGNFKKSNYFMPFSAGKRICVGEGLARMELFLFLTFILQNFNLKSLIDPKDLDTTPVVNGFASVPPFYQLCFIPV
# assay summary: Cocktail assay for CYPs, mephenytoin 4′-hydroxylation (CYP2C19), human liver microsomes
# Format: biochemical
# measurement conditions: 30 μM mephenytoin, 0.1 mg/mL human liver microsomes, 10 min at 37° C.; read-out: CYP IC50 (nM) 2C19
Entries and their log10 of IC50 values follow.
measure name: log10 of IC50 (log10 of the value in nM)

# molecule, measure name, recorded value
rows = [
    ("O=S(=O)(c1ccc(NCC(O)C2CC2)nc1)N1CCCC1c1ccccc1-c1cncn1CCc1ccc(F)cc1 (single isomer, unassigned) [Compound 34a]", "log10 of IC50", 3.43),
    ("COc1ccc(OC)c(S(=O)(=O)N2CCCC2c2cccc(-c3cncn3CCc3ccc(F)cc3)c2)c1 (single isomer, unassigned) [Compound 53b]", "log10 of IC50", 2.17),
    ("O=S(=O)(c1ccc2c(c1)OCO2)N1CCCC1c1ccccc1-c1cncn1CCc1ccc(F)cc1 (stereo not shown)", "log10 of IC50", 3.13),
    ("COc1ccc(OC)c(S(=O)(=O)N2CCCC2c2cccc(-c3cncn3CCc3ccc(F)cc3)c2)c1 (single isomer, unassigned) [Compound 53a]", "log10 of IC50", 1.90),
    ("O=S(=O)(c1cnc(N2CCN3C[C@H](O)C[C@H]3C2)s1)N1CCc2c(cccc2-c2cncn2CCc2ccc(F)cc2)C1", "log10 of IC50", 3.63),
    ("CC(C)(C)OC(=O)N1CCCC1c1ccccc1-c1cncn1C1CC1 (stereo not shown)", "log10 of IC50", 3.76),
]

====

# measured target: CYP2C9 (Homo sapiens, UniProt P11712)
# Construct: 0.1 mg/mL protein human liver microsomes (BD Gentest); tissue BD Gentest; host or cells: human liver microsomes
# Sequence (P11712 whole entry): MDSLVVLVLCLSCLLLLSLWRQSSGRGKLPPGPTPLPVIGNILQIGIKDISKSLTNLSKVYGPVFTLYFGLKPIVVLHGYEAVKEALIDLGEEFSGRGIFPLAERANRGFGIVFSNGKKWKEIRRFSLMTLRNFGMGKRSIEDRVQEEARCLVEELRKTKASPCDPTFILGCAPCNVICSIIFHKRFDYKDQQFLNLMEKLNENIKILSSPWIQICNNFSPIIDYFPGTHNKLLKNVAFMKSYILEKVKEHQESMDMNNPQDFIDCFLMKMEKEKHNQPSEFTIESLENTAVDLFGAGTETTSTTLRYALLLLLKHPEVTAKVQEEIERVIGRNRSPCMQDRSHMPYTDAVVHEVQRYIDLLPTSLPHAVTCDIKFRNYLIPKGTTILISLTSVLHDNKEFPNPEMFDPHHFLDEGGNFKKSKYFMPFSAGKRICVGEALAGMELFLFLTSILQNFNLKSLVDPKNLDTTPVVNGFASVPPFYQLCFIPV
# assay summary: Cocktail assay for CYPs, diclofenac 4′-hydroxylation (CYP2C9), human liver microsomes
# Type: biochemical
# measurement conditions: 5 μM diclofenac, 0.1 mg/mL human liver microsomes, 10 min at 37° C.; read-out: CYP IC50 (nM) 2C9
Entries and their IC50 values follow.

# compound, measured target, measurement units, inequality symbol, IC50
rows = [
    ("CC(=O)Nc1ncc(S(=O)(=O)N2CCCC2c2ccc(-c3cncn3CCc3ccc(F)cc3)cc2)s1 (stereo not drawn)", "CYP2C9 (Homo sapiens, UniProt P11712)", "nM", "=", 565),
    ("O=C(c1ccc(N2CCOCC2)nc1)N1CCCC1c1ccccc1-c1cncn1CCc1ccc(F)cc1 (single isomer, unassigned) [Compound 43b]", "CYP2C9 (Homo sapiens, UniProt P11712)", "nM", "=", 7950),
    ("CC(C)(C)OC(=O)N1CCCC1c1ccccc1-c1cncn1C1CC1 (stereo not drawn)", "CYP2C9 (Homo sapiens, UniProt P11712)", "nM", ">", 10000),
    ("CN1CCN(c2ncc(S(=O)(=O)N3CCc4c(-c5cncn5CCc5ccc(F)cc5)ccnc4C3)s2)CC1", "CYP2C9 (Homo sapiens, UniProt P11712)", "nM", ">", 10000),
    ("CN(C)c1ccc(S(=O)(=O)N2CCCC2c2ccccc2-c2cncn2CCc2ccc(F)cc2)cn1 (single isomer, unassigned) [Compound 28a]", "CYP2C9 (Homo sapiens, UniProt P11712)", "nM", "=", 1520),
    ("O=S(=O)(c1cnc(N2CCN3C[C@H](O)C[C@H]3C2)s1)N1CCc2c(cccc2-c2cncn2CCc2ccc(F)cc2)C1", "CYP2C9 (Homo sapiens, UniProt P11712)", "nM", "=", 3550),
    ("CC(C)(C)OC(=O)N1CCCC1c1ccccc1-c1cncn1CCc1ccc(F)cc1 (stereo not drawn)", "CYP2C9 (Homo sapiens, UniProt P11712)", "nM", "=", 1770),
    ("CS(=O)(=O)N1CCCC1c1ccccc1-c1cncn1CCc1ccc(F)cc1 (single isomer, unassigned) [Compound 23a]", "CYP2C9 (Homo sapiens, UniProt P11712)", "nM", ">", 10000),
    ("O=C(c1cccnc1)N1CCCC1c1ccccc1-c1cncn1CCc1ccc(F)cc1 (single isomer, unassigned) [Compound 42a]", "CYP2C9 (Homo sapiens, UniProt P11712)", "nM", ">", 10000),
    ("CN1CCN(c2ccc(S(=O)(=O)N3CCc4c(cccc4-c4cncn4CCc4ccc(F)cc4)C3)cn2)CC1", "CYP2C9 (Homo sapiens, UniProt P11712)", "nM", "=", 4530),
    ("CC(=O)Nc1ncc(S(=O)(=O)NCc2ccccc2-c2cncn2CCc2ccc(F)cc2)s1", "CYP2C9 (Homo sapiens, UniProt P11712)", "nM", ">", 10000),
    ("O=S(=O)(c1ccc(N2CCC(O)CC2)nc1)N1CCCC1c1ccccc1-c1cncn1CCc1ccc(F)cc1 (single isomer, unassigned) [Compound 33]", "CYP2C9 (Homo sapiens, UniProt P11712)", "nM", "=", 2890),
    ("CC(C)NC(=O)N1CCCC1c1ccccc1-c1cncn1CCc1ccc(F)cc1 (single isomer, unassigned) [Compound 46b]", "CYP2C9 (Homo sapiens, UniProt P11712)", "nM", ">", 10000),
    ("O=S(=O)(c1cnc(Cl)c(Br)c1)N1CCCC1c1ccccc1-c1cncn1CCc1ccc(F)cc1 (stereo not drawn)", "CYP2C9 (Homo sapiens, UniProt P11712)", "nM", "=", 2220),
    ("CC(C)NC(=O)N1CCCC1c1cccc(-c2cncn2CCc2ccc(F)cc2)c1 (stereo not drawn)", "CYP2C9 (Homo sapiens, UniProt P11712)", "nM", "=", 4180),
]

====

# measured target: CYP3A4 (Homo sapiens, UniProt P08684)
# Sequence (P08684 2-503): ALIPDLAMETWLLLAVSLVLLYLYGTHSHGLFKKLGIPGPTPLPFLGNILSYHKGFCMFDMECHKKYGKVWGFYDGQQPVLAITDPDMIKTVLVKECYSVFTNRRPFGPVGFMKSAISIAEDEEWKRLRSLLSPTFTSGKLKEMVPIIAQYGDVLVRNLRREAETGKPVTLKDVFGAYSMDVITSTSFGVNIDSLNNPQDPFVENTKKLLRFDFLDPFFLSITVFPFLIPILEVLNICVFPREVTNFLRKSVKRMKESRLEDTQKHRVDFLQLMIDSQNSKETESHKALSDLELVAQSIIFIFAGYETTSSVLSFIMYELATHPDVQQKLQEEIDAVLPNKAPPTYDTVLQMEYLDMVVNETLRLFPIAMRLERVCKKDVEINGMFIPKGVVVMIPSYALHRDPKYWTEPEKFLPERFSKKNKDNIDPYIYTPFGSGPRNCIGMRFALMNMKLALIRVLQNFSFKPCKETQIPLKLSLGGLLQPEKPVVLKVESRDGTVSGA
# assay summary: IC50 vs CYP3A by inhibition of lopinavir metabolism in human liver microsomes
# Assay type: biochemical
# Set-up: 0.01 mg/mL protein human liver microsomes (BD Gentest); tissue BD Gentest; host or cells: human liver microsomes
# measurement conditions: 1.5 μM lopinavir, 0.01 mg/mL human liver microsomes, 8 min at 37° C.; read-out: CYP IC50 (nM) 3A4 (LPV)
Entries and their IC50 values follow.

# compound, inequality symbol, IC50 (nM)
measured = [
    ("CC(=O)Nc1ncc(S(=O)(=O)N2CCCC2c2ccccc2-c2cncn2C)s1 (stereo not drawn)", "=", 37.7),
    ("O=C(C1CC1)N1CCCC1c1cccc(-c2cncn2CCc2ccc(F)cc2)c1 (stereo not drawn)", "=", 16.7),
    ("O=S(=O)(NCCc1ccccc1-c1cncn1CCc1ccc(F)cc1)c1cccnc1", "=", 54),
    ("O=C(NCc1ccc(S(=O)(=O)N2CCCC2c2cccc(-c3cncn3CCc3ccc(F)cc3)c2)s1)c1ccccc1 (single isomer, unassigned) [Compound 55b]", "=", 0.92),
    ("CN1CCN(c2ncc(S(=O)(=O)NC(c3ccccc3)c3ccccc3-c3cncn3CCc3ccc(F)cc3)s2)CC1 (stereo not drawn)", "=", 80),
    ("O=C(C1CCOCC1)N1CCCC1c1cccc(-c2cncn2CCc2ccc(F)cc2)c1 (single isomer, unassigned) [Compound 49b]", ">", 100),
    ("CC(C)(C)OC(=O)N1CCCC1c1ccccc1-c1cncn1C1CC1 (stereo not drawn)", "=", 35.2),
    ("O=C(c1ccc(N2CCOCC2)nc1)N1CCCC1c1cccc(-c2cncn2CCc2ccc(F)cc2)c1 (stereo not drawn)", "=", 6),
    ("CN1CCN(c2ncc(S(=O)(=O)N3CCc4c(ncnc4-c4cncn4CCc4ccc(F)cc4)C3)s2)CC1", ">", 100),
    ("CC(=O)Nc1ncc(S(=O)(=O)NC(C)(C)c2ccccc2-c2cncn2CCc2ccc(F)cc2)s1", "=", 10.6),
    ("Fc1ccc(CCn2cncc2-c2ccccc2C2CCCN2)cc1 (stereo not drawn)", "=", 27.4),
    ("CC(=O)Nc1ncc(S(=O)(=O)N2CCc3cc(-c4cncn4CCc4ccc(F)cc4)ccc3C2)s1", "=", 2.3),
    ("O=C(C1CC1)N1CCCC1c1ccccc1-c1cncn1CCc1ccc(F)cc1 (single isomer, unassigned) [Compound 44b]", "=", 6.4),
    ("O=S(=O)(c1cnc(N2CCN3C[C@H](O)C[C@H]3C2)s1)N1CCc2cccc(-c3cncn3CCc3ccc(F)cc3)c2C1", "=", 8.9),
    ("CN1CCN(c2ncc(S(=O)(=O)N3CCCC3c3ccc(-c4cncn4CCc4ccc(F)cc4)cc3)s2)CC1 (stereo not drawn)", "=", 2.4),
]

====

# measured target: CYP2C19 (Homo sapiens)
# Construct: 0.1 mg/mL protein human liver microsomes (BD Gentest); tissue BD Gentest; host or cells: human liver microsomes
# assay summary: Cocktail assay for CYPs, mephenytoin 4′-hydroxylation (CYP2C19), human liver microsomes
# Assay type: biochemical
# measurement conditions: 30 μM mephenytoin, 0.1 mg/mL human liver microsomes, 10 min at 37° C.; read-out: CYP IC50 (nM) 2C19
measure name: IC50 (nM)

# compound, measure name, inequality symbol, recorded value
records = [
    ("O=C(C1CCOCC1)N1CCCC1c1cccc(-c2cncn2CCc2ccc(F)cc2)c1 (single isomer, unassigned) [Compound 49a]", "IC50", "=", 3830),
    ("CC(=O)Nc1ncc(S(=O)(=O)N2CCc3cc(-c4cncn4CCc4ccc(F)cc4)ccc3C2)s1", "IC50", "=", 44),
    ("O=C(C1CC1)N1CCCC1c1cccc(-c2cncn2CCc2ccc(F)cc2)c1 (stereo not shown)", "IC50", "=", 1010),
    ("O=S(=O)(c1cnc(N2CCN3C[C@H](O)C[C@H]3C2)s1)N1CCCC1c1ccccc1-c1cncn1CCc1ccc(F)cc1 (single isomer, unassigned) [Compound 22a]", "IC50", ">", 10000),
    ("CN1CCN(c2ncc(S(=O)(=O)N3CCc4c(-c5cncn5CCc5ccc(F)cc5)ccnc4C3)s2)CC1", "IC50", ">", 10000),
    ("O=S(=O)(c1ccc(N2CCOCC2)nc1)N1CCCC1c1ccccc1-c1cncn1CCc1ccc(F)cc1 (stereo not shown)", "IC50", "=", 3260),
    ("O=S(=O)(NCc1ccccc1-c1cncn1CCc1ccc(F)cc1)c1cnc(N2CCN3C[C@H](O)C[C@H]3C2)s1", "IC50", ">", 10000),
]
